assay procedure: AUC (0 to infinity) in CD-1 mouse at 1 mg/kg,iv measured upto 24 hrs by HPLC-MS/MS analysis
Format: ADME, organism-based
Set-up: dose 1 mg/kg, time < 24 hrs, route iv
condition label: in vivo
experimental readout: AUC(0-inf) (ng·h/mL)
# number only, unit ng·h/mL dropped from output

Requested read-out: AUC(0-inf). Entry: COc1cc(-c2nccc3nc(Nc4cccc5[nH]ccc45)nn23)cc(OC)c1OC
390

====

Test system: HT-29
assay procedure: Antiproliferative activity against human HT-29 cells assessed as cell growth inhibition incubated for 48 hrs by MTT assay
Format: functional, cell-based
condition label: HT-29, 48 h
experimental readout: pIC50
Please express pIC50 as -log10 of the molar concentration.

What pIC50 appears in the records for this compound with HT-29? COc1cc2c(c(OC)c1OC)-c1ccc(OC)c(=O)cc1[C@@H](NC(C)=O)CC2
7.51

What pIC50 appears in the records for this compound with HT-29? CN1CCN(c2cccc(Nc3nc4c(-c5ccc(S(C)(=O)=O)cc5)cccn4n3)c2)CC1
6.02

What pIC50 appears in the records for this compound with HT-29? COc1cc(-c2nccc3nc(Nc4cccc5[nH]ccc45)nn23)cc(OC)c1OC
7.57

====

For each record, write down the corresponding IC50 at 48 h.
assay procedure: Cytotoxicity against human ARPE-19 cells assessed as cell growth inhibition incubated for 48 hrs by MTT assay
Format: toxicity, cell-based
# number only, unit µM dropped from output

Requested read-out: IC50 at 48 h. Entry: COc1cc2c(c(OC)c1OC)-c1ccc(OC)c(=O)cc1[C@@H](NC(C)=O)CC2 [COLCHICINE]
0.0218

Requested read-out: IC50 at 48 h. Entry: CN1CCN(c2cccc(Nc3nc4c(-c5ccc(S(C)(=O)=O)cc5)cccn4n3)c2)CC1
4.93

Requested read-out: IC50 at 48 h. Entry: COc1cc(-c2nccc3nc(Nc4cccc5[nH]ccc45)nn23)cc(OC)c1OC
5.03

====

experimental readout: IC50 (nM)
# number only, unit nM dropped from output

What IC50 appears in the records for this compound with Tyrosine-protein kinase JAK1 (Homo sapiens)? CN1CCN(c2cccc(Nc3nc4c(-c5ccc(S(C)(=O)=O)cc5)cccn4n3)c2)CC1
Sequence (P23458 whole entry): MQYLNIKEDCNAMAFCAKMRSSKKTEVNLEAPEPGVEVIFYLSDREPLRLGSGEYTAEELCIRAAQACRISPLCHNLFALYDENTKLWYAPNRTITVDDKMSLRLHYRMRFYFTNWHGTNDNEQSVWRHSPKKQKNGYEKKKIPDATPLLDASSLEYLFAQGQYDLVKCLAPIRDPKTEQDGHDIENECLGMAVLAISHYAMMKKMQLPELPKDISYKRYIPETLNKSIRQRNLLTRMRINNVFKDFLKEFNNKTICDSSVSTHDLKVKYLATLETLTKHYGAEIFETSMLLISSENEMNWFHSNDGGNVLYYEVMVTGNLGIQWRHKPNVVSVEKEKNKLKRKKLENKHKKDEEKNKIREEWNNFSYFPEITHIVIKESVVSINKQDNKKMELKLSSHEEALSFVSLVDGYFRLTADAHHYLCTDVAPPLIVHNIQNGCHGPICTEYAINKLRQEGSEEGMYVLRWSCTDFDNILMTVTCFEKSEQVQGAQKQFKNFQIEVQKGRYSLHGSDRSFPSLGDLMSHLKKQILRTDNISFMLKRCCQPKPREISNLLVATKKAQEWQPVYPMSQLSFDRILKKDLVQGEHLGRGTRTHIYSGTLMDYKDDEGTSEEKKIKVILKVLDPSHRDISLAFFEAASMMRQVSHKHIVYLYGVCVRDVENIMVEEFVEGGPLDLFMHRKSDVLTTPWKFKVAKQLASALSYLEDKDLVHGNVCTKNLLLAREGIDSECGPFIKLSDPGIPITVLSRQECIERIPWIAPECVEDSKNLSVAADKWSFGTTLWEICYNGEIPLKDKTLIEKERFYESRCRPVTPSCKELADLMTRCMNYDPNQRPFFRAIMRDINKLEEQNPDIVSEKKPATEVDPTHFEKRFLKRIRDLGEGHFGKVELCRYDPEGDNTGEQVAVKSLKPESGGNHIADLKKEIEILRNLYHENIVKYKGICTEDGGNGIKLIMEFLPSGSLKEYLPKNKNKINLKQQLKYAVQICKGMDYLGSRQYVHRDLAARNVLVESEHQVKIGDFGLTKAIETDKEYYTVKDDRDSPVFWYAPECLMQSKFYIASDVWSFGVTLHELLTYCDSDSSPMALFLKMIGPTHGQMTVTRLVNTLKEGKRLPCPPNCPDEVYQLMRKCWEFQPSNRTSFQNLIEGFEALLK
12

====

For each record, write down the corresponding pIC50.
Please express pIC50 as -log10 of the molar concentration.

What pIC50 appears in the records for this compound with Tyrosine-protein kinase JAK2 (Homo sapiens, UniProt O60674)? COc1cc(-c2nccc3nc(Nc4ccc5[nH]ccc5c4)nn23)cc(OC)c1OC
Sequence (O60674 whole entry): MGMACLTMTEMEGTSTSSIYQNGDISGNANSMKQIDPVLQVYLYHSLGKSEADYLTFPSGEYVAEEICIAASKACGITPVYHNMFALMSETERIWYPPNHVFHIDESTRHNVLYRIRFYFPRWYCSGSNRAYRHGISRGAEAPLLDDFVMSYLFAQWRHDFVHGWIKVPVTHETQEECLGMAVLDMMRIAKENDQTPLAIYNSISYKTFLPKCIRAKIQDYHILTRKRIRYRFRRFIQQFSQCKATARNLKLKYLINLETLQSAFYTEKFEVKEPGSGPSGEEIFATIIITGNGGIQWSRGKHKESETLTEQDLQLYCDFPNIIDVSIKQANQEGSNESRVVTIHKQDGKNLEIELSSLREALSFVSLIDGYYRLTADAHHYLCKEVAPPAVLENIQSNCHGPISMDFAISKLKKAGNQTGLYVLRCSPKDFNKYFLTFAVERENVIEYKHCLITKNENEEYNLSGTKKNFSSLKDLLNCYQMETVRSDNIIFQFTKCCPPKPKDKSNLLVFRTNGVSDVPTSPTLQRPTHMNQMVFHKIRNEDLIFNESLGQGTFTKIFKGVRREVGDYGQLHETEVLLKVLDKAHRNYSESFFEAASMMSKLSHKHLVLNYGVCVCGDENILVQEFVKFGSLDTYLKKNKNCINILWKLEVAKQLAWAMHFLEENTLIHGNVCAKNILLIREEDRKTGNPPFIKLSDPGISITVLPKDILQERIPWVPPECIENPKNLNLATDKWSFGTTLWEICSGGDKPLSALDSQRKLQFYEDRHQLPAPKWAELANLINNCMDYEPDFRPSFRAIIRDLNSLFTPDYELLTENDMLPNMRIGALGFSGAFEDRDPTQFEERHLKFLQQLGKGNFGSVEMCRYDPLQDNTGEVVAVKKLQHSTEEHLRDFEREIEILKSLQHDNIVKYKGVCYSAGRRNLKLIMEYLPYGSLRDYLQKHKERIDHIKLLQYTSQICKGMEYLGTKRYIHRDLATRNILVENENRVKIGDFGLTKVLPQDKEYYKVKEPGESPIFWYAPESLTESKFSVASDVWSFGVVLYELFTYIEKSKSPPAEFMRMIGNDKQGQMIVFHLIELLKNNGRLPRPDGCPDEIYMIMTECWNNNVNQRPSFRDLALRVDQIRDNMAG
7.05

What pIC50 appears in the records for this compound with Tyrosine-protein kinase JAK2 (Homo sapiens, UniProt O60674)? CN1CCN(c2cccc(Nc3nc4c(-c5ccc(S(C)(=O)=O)cc5)cccn4n3)c2)CC1
8.22

What pIC50 appears in the records for this compound with Tyrosine-protein kinase JAK2 (Homo sapiens, UniProt O60674)? COc1ccc(Nc2nc3ccnc(-c4cc(OC)c(OC)c(OC)c4)n3n2)cc1N
6.49

What pIC50 appears in the records for this compound with Tyrosine-protein kinase JAK2 (Homo sapiens, UniProt O60674)? COc1cc(-c2nccc3nc(Nc4cccc5[nH]ccc45)nn23)cc(OC)c1OC
7.13

What pIC50 appears in the records for this compound with Tyrosine-protein kinase JAK2 (Homo sapiens, UniProt O60674)? COc1cc(-c2nccc3nc(Nc4ccc5c(ccn5C)c4)nn23)cc(OC)c1OC
6.26

====

assay procedure: Half life in CD-1 mouse at 1 mg/kg,iv measured upto 24 hrs by HPLC-MS/MS analysis
Assay type: ADME, organism-based
condition label: in vivo
experimental readout: half-life (h)
# number only, unit h dropped from output

Requested read-out: half-life. Entry: COc1cc(-c2nccc3nc(Nc4cccc5[nH]ccc45)nn23)cc(OC)c1OC
6

====

assay procedure: AUC (0 to t) in CD-1 mouse at 10 mg/kg,ip measured upto 24 hrs by HPLC-MS/MS analysis
Assay type: ADME, organism-based
Design: dose 10 mg/kg, time < 24 hrs, route ip
condition label: in vivo
experimental readout: AUC(0-t) at 24 h (ng·h/mL)
# number only, unit ng·h/mL dropped from output

Requested read-out: AUC(0-t) at 24 h. Entry: COc1cc(-c2nccc3nc(Nc4cccc5[nH]ccc45)nn23)cc(OC)c1OC
559

====

Test system: PC-3
assay procedure: Antiproliferative activity against human PC-3 cells assessed as cell growth inhibition incubated for 48 hrs by MTT assay
Format: functional, cell-based
condition label: PC-3, 48 h
experimental readout: pIC50
Please express pIC50 as -log10 of the molar concentration.

Requested read-out: pIC50. Entry: CN1CCN(c2cccc(Nc3nc4c(-c5ccc(S(C)(=O)=O)cc5)cccn4n3)c2)CC1
4.82

Requested read-out: pIC50. Entry: COc1cc(-c2nccc3nc(Nc4cccc5[nH]ccc45)nn23)cc(OC)c1OC
6.65

Requested read-out: pIC50. Entry: COc1cc2c(c(OC)c1OC)-c1ccc(OC)c(=O)cc1[C@@H](NC(C)=O)CC2
7.10

====

assay procedure: AUC (0 to infinity) in CD-1 mouse at 10 mg/kg,ip measured upto 24 hrs by HPLC-MS/MS analysis
Format: ADME, organism-based
Set-up: time < 24 hrs, dose 10 mg/kg, route ip
condition label: in vivo
experimental readout: AUC(0-inf) (ng·h/mL)
# number only, unit ng·h/mL dropped from output

Requested read-out: AUC(0-inf). Entry: COc1cc(-c2nccc3nc(Nc4cccc5[nH]ccc45)nn23)cc(OC)c1OC
580

====

assay procedure: Oral bioavailability in CD-1 mouse at 10 mg/kg,ip measured upto 24 hrs by HPLC-MS/MS analysis
Format: ADME, organism-based
condition label: in vivo
experimental readout: bioavailability (%)
# number only, unit % dropped from output

Requested read-out: bioavailability. Entry: COc1cc(-c2nccc3nc(Nc4cccc5[nH]ccc45)nn23)cc(OC)c1OC
15.4

====

assay procedure: AUC (0 to t) in CD-1 mouse at 1 mg/kg,iv measured upto 24 hrs by HPLC-MS/MS analysis
Type: ADME, organism-based
Design: dose 1 mg/kg, time < 24 hrs, route iv
condition label: in vivo
experimental readout: AUC(0-t) at 24 h (ng·h/mL)
# number only, unit ng·h/mL dropped from output

Requested read-out: AUC(0-t) at 24 h. Entry: COc1cc(-c2nccc3nc(Nc4cccc5[nH]ccc45)nn23)cc(OC)c1OC
364

====

assay procedure: MRT (0 to infinity) in CD-1 mouse at 1 mg/kg,iv measured upto 24 hrs by HPLC-MS/MS analysis
Type: ADME, organism-based
condition label: in vivo
experimental readout: MRT inf (h)
# number only, unit h dropped from output

Requested read-out: MRT inf. Entry: COc1cc(-c2nccc3nc(Nc4cccc5[nH]ccc45)nn23)cc(OC)c1OC
7.1

====

assay procedure: MRT (0 to t) in CD-1 mouse at 1 mg/kg,iv measured upto 24 hrs by HPLC-MS/MS analysis
Format: ADME, organism-based
condition label: in vivo
experimental readout: MRT last at 24 h (h)
# number only, unit h dropped from output

Requested read-out: MRT last at 24 h. Entry: COc1cc(-c2nccc3nc(Nc4cccc5[nH]ccc45)nn23)cc(OC)c1OC
5.2

====

assay procedure: MRT (0 to infinity) in CD-1 mouse at 13 mg/kg,ip measured upto 24 hrs by HPLC-MS/MS analysis
Type: ADME, organism-based
condition label: in vivo
experimental readout: MRT inf (h)
# number only, unit h dropped from output

Requested read-out: MRT inf. Entry: COc1cc(-c2nccc3nc(Nc4cccc5c4ccn5P(=O)([O-])[O-])nn23)cc(OC)c1OC.[Na+].[Na+]
2.4

====

assay procedure: AUC (0 to infinity) in CD-1 mouse at 13 mg/kg,ip measured upto 24 hrs by HPLC-MS/MS analysis
Assay type: ADME, organism-based
Parameters: time < 24 hrs, dose 13 mg/kg, route ip
condition label: in vivo
experimental readout: AUC(0-inf) (ng·h/mL)
# number only, unit ng·h/mL dropped from output

Requested read-out: AUC(0-inf). Entry: COc1cc(-c2nccc3nc(Nc4cccc5c4ccn5P(=O)([O-])[O-])nn23)cc(OC)c1OC.[Na+].[Na+]
908

====

assay procedure: Half life in CD-1 mouse at 10 mg/kg,ip measured upto 24 hrs by HPLC-MS/MS analysis
Format: ADME, organism-based
condition label: in vivo
experimental readout: half-life (h)
# number only, unit h dropped from output

Requested read-out: half-life. Entry: COc1cc(-c2nccc3nc(Nc4cccc5[nH]ccc45)nn23)cc(OC)c1OC
5.5

====

assay procedure: Cmax in CD-1 mouse at 1 mg/kg,iv measured upto 24 hrs by HPLC-MS/MS analysis
Type: ADME, organism-based
Parameters: dose 1 mg/kg, time < 24 hrs, route iv
condition label: in vivo
experimental readout: Cmax (ng/mL)
# number only, unit ng/mL dropped from output

Requested read-out: Cmax. Entry: COc1cc(-c2nccc3nc(Nc4cccc5[nH]ccc45)nn23)cc(OC)c1OC
117
